- systemTested: GR (Homo sapiens, UniProt P04150)
- Construct: evaluated using ^3H-ligand displacement assays on cells; endogenous in cells; host or cells: DU145
- Sequence (P04150 1-777): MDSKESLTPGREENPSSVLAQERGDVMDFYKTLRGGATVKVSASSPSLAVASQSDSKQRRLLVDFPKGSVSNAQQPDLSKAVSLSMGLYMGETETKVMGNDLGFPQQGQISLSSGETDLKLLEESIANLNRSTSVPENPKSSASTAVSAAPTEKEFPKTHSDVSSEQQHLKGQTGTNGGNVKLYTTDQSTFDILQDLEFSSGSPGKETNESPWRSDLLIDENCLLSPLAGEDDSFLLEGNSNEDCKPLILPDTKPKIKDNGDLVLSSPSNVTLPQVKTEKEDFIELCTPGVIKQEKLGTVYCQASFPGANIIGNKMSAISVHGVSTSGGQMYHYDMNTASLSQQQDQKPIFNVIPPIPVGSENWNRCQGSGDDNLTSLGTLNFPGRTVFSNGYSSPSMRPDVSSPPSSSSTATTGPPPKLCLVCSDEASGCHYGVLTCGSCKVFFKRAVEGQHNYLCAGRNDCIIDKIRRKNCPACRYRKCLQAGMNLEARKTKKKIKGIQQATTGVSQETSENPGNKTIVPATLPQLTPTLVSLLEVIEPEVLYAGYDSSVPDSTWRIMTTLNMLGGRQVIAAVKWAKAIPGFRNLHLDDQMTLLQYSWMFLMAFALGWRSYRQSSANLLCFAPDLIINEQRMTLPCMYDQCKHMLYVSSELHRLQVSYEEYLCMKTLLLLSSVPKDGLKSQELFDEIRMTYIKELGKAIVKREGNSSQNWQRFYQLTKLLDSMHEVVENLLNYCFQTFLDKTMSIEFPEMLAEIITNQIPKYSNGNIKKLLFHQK
- procedureDetails: 3H-dexamethasone displacement assay on cells (Ki)
- Type: binding
- experimentalConditions: GR in cells; one site Ki fit; read-out: Ki
Ki values by entry
// return the numeric value with its unit appended

In [3]: df
Out[3]:
                                   compound   result
0  COc1cccc2c1-c1ccc3c(c1[C@H](Cc1ccc(F)cc1)O2)C(C)=CC(C)(C)N3 [(S)-YJH08]  2.03 nM
1  CC1=CC(C)(C)Nc2ccc3c(c21)c(=O)oc1cccc(O)c13  2.35 nM

Input: Provide the reported Ki (system: GR (Homo sapiens, UniProt P04150)) for COc1cccc2c1-c1ccc3c(c1[C@@H](Cc1ccc(F)cc1)O2)C(C)=CC(C)(C)N3 [(R)-YJH08]
Output: 3.76 nM

Input: State Ki (GR (Homo sapiens, UniProt P04150)) of `COc1cccc2oc(=O)c3c4c(ccc3c12)NC(C)(C)C=C4C` .
Output: 2.67 nM

Input: Look up GR (Homo sapiens, UniProt P04150) data: Ki of COc1cccc2c1-c1ccc3c(c1C(OC)O2)C(C)=CC(C)(C)N3 (stereo not drawn) , then report it.
Output: 6.22 nM

Input: Provide the reported Ki (system: GR (Homo sapiens, UniProt P04150)) for COc1cccc2c1-c1ccc3c(c1C(O)O2)C(C)=CC(C)(C)N3 (stereo not drawn)
Output: 6.51 nM

* * *

- procedureDetails: Plasma protein binding, rapid equilibrium dialysis, mouse plasma
- Format: in vitro ADME
- experimentalConditions: mouse, plasma, pH 7.4, mouse plasma, read-out: % Bound Average (converted)
quantityName: fraction unbound at 4 h, 2 μM
// return a plain number; no unit text

Input: For the compound CC(C)NCC(O)COc1cccc2ccccc12 (centres unmarked) [Propranolol] , report fraction unbound at 4 h, 2 μM.
Output: 0.22
